# System: T47D
# assay.remarks: NCI tumour cell line growth inhibition, 48 h
Activity calls are given as the source filed them. Cut-off read from the data, not from the text of the source: active = GI50 up to about 1.1 µM and inactive = higher.
// classify into active, inactive

Asked: I'd appreciate the recorded outcome for N#CC(c1ccc(O)cc1)N1CCN(C(C#N)c2ccc(O)cc2)CC1 (centres undefined) from this test.
Given back: inactive

Asked: I'd appreciate the recorded outcome for `CC(C)[C@H]1NC(=O)[C@H]2N=C(S[C@H]2C)[C@@H]2CCCN2C(=O)[C@H](Cc2ccccc2)NC(=O)[C@@H]2CSC(=N2)[C@@H](Cc2ccccc2)NC(=O)[C@@H]2CSC1=N2` from this test.
Given back: inactive

Asked: I'd appreciate the recorded outcome for `COC1=CC(=O)c2c(cc(COP(=O)(N(C)CCBr)N(C)CCBr)n2C)C1=O` from this test.
Given back: active

Asked: I'd appreciate the recorded outcome for `C[N+](C)([O-])CCC=C1c2ccccc2CCc2ccccc21` from this test.
Given back: inactive

---

# Tested on: MOLT-4
# assay.remarks: NCI tumour cell line growth inhibition, 48 h
The source made the active and inactive calls. No stated cut-off is given here; in the data, active = GI50 up to about 1.1 µM and inactive = higher.
// classify into active, inactive

Asked: I'd appreciate the recorded outcome for COC(=O)C(/C(=N\O)C(=O)Nc1ccc(Br)cc1)c1nc2ccccc2nc1O (configuration not stated) from this test.
Given back: inactive

Asked: I'd appreciate the recorded outcome for `N#CCCN(CCC#N)c1ccc(C(=N/c2ccc(Cl)cc2)/N=N/c2ccccc2)cc1` from this test.
Given back: inactive

Asked: I'd appreciate the recorded outcome for `O=C(O/C(=C(/N=N/c1ccccc1)c1ccccc1)c1ccccc1)c1ccccc1` from this test.
Given back: inactive

Asked: I'd appreciate the recorded outcome for `CC/C=C\C/C=C\C/C=C\CCCCCCCC(=O)OCC` from this test.
Given back: inactive

Asked: I'd appreciate the recorded outcome for CC1(c2ccc(F)cc2)C(C#N)C(=O)NC(=O)C1C#N (configuration not stated) from this test.
Given back: inactive

Asked: I'd appreciate the recorded outcome for `CO/C(=N\N=C\c1ccc(Cl)cc1)c1ccncc1` from this test.
Given back: inactive

Asked: I'd appreciate the recorded outcome for `CCOC(=O)c1c(N2CCCC2)[nH]c(=O)c(C(c2c(O)c(C(=O)OCC)c(N3CCCC3)[nH]c2=O)C(C)C)c1O` from this test.
Given back: inactive

Asked: I'd appreciate the recorded outcome for `Nc1ncn(C/C=C/c2ccccc2)c2ncnc1-2` from this test.
Given back: inactive

Asked: I'd appreciate the recorded outcome for `COc1ccc(N/N=C2\CCOc3ccc(C)cc3C2=O)cc1` from this test.
Given back: inactive

Asked: I'd appreciate the recorded outcome for `CN1Cc2ccccc2S(=O)(=O)n2cccc2C1=O` from this test.
Given back: inactive

Asked: I'd appreciate the recorded outcome for O=C(COc1ccc(OCC(=O)NNC2=NC(c3cc(F)c(Cl)cc3Cl)CS2)c(Cl)c1)NNC1=NC(c2cc(F)c(Cl)cc2Cl)CS1 (configuration not stated) from this test.
Given back: inactive

Asked: I'd appreciate the recorded outcome for CCOC(=O)Nc1cc2c(c(N)n1)N=C(c1ccccc1)[C@H](C)N2 [MIVOBULIN ISETHIONATE] from this test.
Given back: active

Asked: I'd appreciate the recorded outcome for O=C1CCCC1NC(=O)C(F)(F)F (configuration not stated) from this test.
Given back: inactive

Asked: I'd appreciate the recorded outcome for `Cc1cccc(/C=N/NC(=S)NC2CCCCC2)n1` from this test.
Given back: inactive

Asked: I'd appreciate the recorded outcome for `O=S(=O)(O)c1ccc2c(/N=N/c3ccccc3Cl)c(O)ccc2c1` from this test.
Given back: inactive

Asked: I'd appreciate the recorded outcome for CCC1C2C=CC(CC2)N1S(=O)(=O)c1ccc(C)cc1 (configuration not stated) from this test.
Given back: inactive

Asked: I'd appreciate the recorded outcome for COC(=O)C1=C(C(=O)OC)C2(/N=C(\Nc3ccccc3)c3ccccc3)N(c3ccc(OC)cc3)CC(c3ccccc3)N2O1 (configuration not stated) from this test.
Given back: inactive

Asked: I'd appreciate the recorded outcome for CCC1N2CCCCC2[C@@H]2c3[nH]c4ccccc4c3CCN12 (some centres not stated) from this test.
Given back: inactive

Asked: I'd appreciate the recorded outcome for CCN(CC)/[N+]([O-])=N/OCC(C)O (configuration not stated) from this test.
Given back: inactive

Asked: I'd appreciate the recorded outcome for `O=S(=O)(c1ccccc1)n1c2ccc(Br)cc2c2nc3ccccc3nc21` from this test.
Given back: inactive

Asked: I'd appreciate the recorded outcome for `COc1ccc(C(=O)/C(=N/Nc2ccccc2)c2ccc(OC)cc2)cc1` from this test.
Given back: inactive

Asked: I'd appreciate the recorded outcome for `Cc1ccc(/C=C/C(=O)C(C)(C)CN2CCCCC2)cc1` from this test.
Given back: inactive

---

# System: RXF 393
# assay.remarks: NCI tumour cell line growth inhibition, 48 h
Calls of active or inactive are those of the source. Rule as the data show it: active = GI50 up to about 1.1 µM and inactive = higher.
// classify into y for active, n for inactive

Asked: I'd appreciate the recorded outcome for CN1C2CCC1CC(CCNC(c1ccccc1)c1ccccc1)C2 (stereo not drawn) from this test.
Given back: n

Asked: I'd appreciate the recorded outcome for `Cc1cc(Cl)ccc1Nc1sc(C(=O)c2cc3cc(Cl)ccc3o2)c(N)c1C#N` from this test.
Given back: n

Asked: I'd appreciate the recorded outcome for `O=P(O)(O)c1ccccc1Oc1ccccc1` from this test.
Given back: n

Asked: I'd appreciate the recorded outcome for `CC(=O)O[C@H]1C(=O)[C@@]2(C)[C@H]([C@H](OC(=O)c3ccccc3)[C@]3(O)C[C@H](OC(=O)[C@H](O)[C@@H](NC(=O)c4cccc(N=[N+]=[N-])c4)c4ccccc4)C(C)=C1C3(C)C)[C@]1(OC(C)=O)CO[C@@H]1C[C@@H]2O` from this test.
Given back: y

Asked: I'd appreciate the recorded outcome for CC(=O)Oc1c2oc3cc(O)c(O)cc3c2c(OC(C)=O)c2oc3cc(O)c(O)cc3c12 [POLYOZELLIN] from this test.
Given back: n

Asked: I'd appreciate the recorded outcome for `O=[N+]([O-])C(/C=N/Nc1ccccc1)/C=N/Nc1ccccc1` from this test.
Given back: n

Asked: I'd appreciate the recorded outcome for `Cc1ccc(/C=C/C(=O)c2cc(CN(C)C)c(O)c(CN(C)C)c2)cc1` from this test.
Given back: n

Asked: I'd appreciate the recorded outcome for `O=S(=O)(c1ccccc1)n1c2ccc(Br)cc2c2nc3ccccc3nc21` from this test.
Given back: n

Asked: I'd appreciate the recorded outcome for `C[P+](C)(CC(F)(F)F)c1ccccc1` from this test.
Given back: n

Asked: I'd appreciate the recorded outcome for CC1(C)CC[C@]2(C(=O)O)CC[C@]3(C)[C@H](C(=O)C=C4[C@@]5(C)C=C(C#N)C(=O)C(C)(C)[C@@H]5CC[C@]43C)[C@@H]2C1 [BARDOXOLONE] from this test.
Given back: y

Asked: I'd appreciate the recorded outcome for `N/C(=N\O)N/N=C/c1ccc2c(c1)OCCO2` from this test.
Given back: n

Asked: I'd appreciate the recorded outcome for `COC(=O)/C(C#N)=C(\N)c1c(C)c2ccccc2oc1=N` from this test.
Given back: n

Asked: I'd appreciate the recorded outcome for CCC1N2CCCCC2[C@@H]2c3[nH]c4ccccc4c3CCN12 (stereo partly drawn) from this test.
Given back: n

Asked: I'd appreciate the recorded outcome for `Cc1nc(Nc2ccc(Cl)c(Cl)c2)sc1C(=O)/C=C/c1ccc2c(c1)OCO2` from this test.
Given back: n

Asked: I'd appreciate the recorded outcome for `CC1(C)CC(=O)c2[nH]c3ccccc3c2CC(=O)NCCc2cn1cn2` from this test.
Given back: n

Asked: I'd appreciate the recorded outcome for `CC(=O)N(C)c1ccc2ncccc2c1[N+](=O)[O-]` from this test.
Given back: n

Asked: I'd appreciate the recorded outcome for CC(C)(C1=NC(C(C)(C)C)CO1)C1=N[C@@H](C(C)(C)C)CO1 (stereo partly drawn) from this test.
Given back: n

Asked: I'd appreciate the recorded outcome for `Cn1c(=O)nc2n(-c3cc(Cl)ccc3Cl)c3ccccc3nc-2c1=O` from this test.
Given back: n

Asked: I'd appreciate the recorded outcome for `CCOC(=O)C(C(=O)OCC)c1ccc([N+](=O)[O-])o1` from this test.
Given back: n

Asked: I'd appreciate the recorded outcome for `COc1ccc(NC(=O)c2cc(OC)c(OC)c(OC)c2)cc1` from this test.
Given back: n

Asked: I'd appreciate the recorded outcome for `c1ccc(C2=C(c3ccccc3)Sc3nnc(CCCCCCCCc4nnc5n4NC(c4ccccc4)=C(c4ccccc4)S5)n3N2)cc1` from this test.
Given back: n

Asked: I'd appreciate the recorded outcome for `CN1CCC2(CC1)SC[C@H]1C(=O)N(c3ccc(Cl)cc3)C(=O)N12` from this test.
Given back: n

Asked: I'd appreciate the recorded outcome for `COc1ccc(C(=O)/C(=N/Nc2ccccc2)c2ccc(OC)cc2)cc1` from this test.
Given back: n

Asked: I'd appreciate the recorded outcome for CCC(=O)C12OC3OC(C)(C)OC3C1OC(C)(C)O2 (stereo not drawn) from this test.
Given back: n

Asked: I'd appreciate the recorded outcome for `COc1cc(OC)c2c(=O)c3c([N+](=O)[O-])cccc3n(C)c2c1` from this test.
Given back: n

Asked: I'd appreciate the recorded outcome for `O=C1N[C@H]2c3c(Cl)sc(Cl)c3/C(=N/O)[C@H]2O1` from this test.
Given back: n

Asked: I'd appreciate the recorded outcome for c1ccc(C2N=C(c3ccccn3)C(c3ccccn3)=NC2c2ccccc2)cc1 (stereo not drawn) from this test.
Given back: n

Asked: I'd appreciate the recorded outcome for `O=S(=O)(Cc1ccccc1)SCc1ccccc1` from this test.
Given back: n

Asked: I'd appreciate the recorded outcome for `Cc1ccc(/C=C/C(=O)C(C)(C)CN2CCCCC2)cc1` from this test.
Given back: n

Asked: I'd appreciate the recorded outcome for `Cc1ccc2c(c1-c1ccccc1)C(=O)OC2` from this test.
Given back: n

Asked: I'd appreciate the recorded outcome for `CCOC(=O)c1nc2ccc(Cl)cc2c2c1Cc1ccccc1-2` from this test.
Given back: n

Asked: I'd appreciate the recorded outcome for CCN(CC)c1ccc2c(c1)Oc1ccc(N(CC)CC)cc1C21Oc2ccccc2-c2c1c1ccccc1n2CC (stereo not drawn) from this test.
Given back: n

Asked: I'd appreciate the recorded outcome for `COc1cc(/C=C2\C[C@H]3[C@@H]4CCc5cc(O)ccc5[C@H]4CC[C@]3(C)C2=O)cc(OC)c1OC` from this test.
Given back: n

Asked: I'd appreciate the recorded outcome for `C/C(=C\CNc1nc(Cl)nc2[nH]cnc12)CO` from this test.
Given back: n

Asked: I'd appreciate the recorded outcome for `CCOC(=O)c1c(N2CCCC2)[nH]c(=O)c(C(c2c(O)c(C(=O)OCC)c(N3CCCC3)[nH]c2=O)C(C)C)c1O` from this test.
Given back: n

Asked: I'd appreciate the recorded outcome for `CC(C)[C@H]1NC(=O)[C@H]2N=C(S[C@H]2C)[C@@H]2CCCN2C(=O)[C@H](Cc2ccccc2)NC(=O)[C@@H]2CSC(=N2)[C@@H](Cc2ccccc2)NC(=O)[C@@H]2CSC1=N2` from this test.
Given back: n

Asked: I'd appreciate the recorded outcome for `[N-]=[N+]=Nc1nc2ccccc2c(N=[N+]=[N-])c1Cl` from this test.
Given back: n

Asked: I'd appreciate the recorded outcome for CC(Oc1ccc(Cl)cc1Cl)C(=O)NN1C(=O)CC(=O)N(c2ccccc2)C1=S (stereo not drawn) from this test.
Given back: n
